molecular target: KRas Q61H mutant (Homo sapiens, UniProt P01116, Q61H); construct: made in house; assay: Ras GTP binding domain inhibition assay (labeled-GTP competition, cell-free); details: at 20 μM, with SOS; read-out: KRas Q61H mutant + SOS: % inh.
Measured inhibition at 20 µM of individual entries

Query: Endpoint output: inhibition at 20 µM of COC1CCN(c2nc(-c3nccn3C)nc3sc(-c4ccn(C(C)C)n4)c(C)c23)C1 (racemic) . Value?
Response: 76 to 100%

Query: Endpoint output: inhibition at 20 µM of COCCCn1ccnc1-c1nc(O)c2scc(-c3ccccn3)c2n1 . Value?
Response: 51 to 75%

Query: Endpoint output: inhibition at 20 µM of CO[C@H]1CC[C@@H](Nc2nc(-c3nccn3C)nc3sc(-c4ccn(C(C)C)n4)c(C(F)(F)F)c23)C1 (racemic) . Value?
Response: 51 to 75%

###

Measured inhibition at 20 µM of individual entries
biological target: KRas G12D mutant (Homo sapiens, UniProt P01116, G12D); construct: made in house; experiment: Ras GTP binding domain inhibition assay (labeled-GTP competition, cell-free); conditions: without SOS, read-out: KRas G12D mutant: % inh.

| compound | targetUnderTest | inhibition at 20 µM |
| --- | --- | --- |
| COc1cccc(Nc2nc(-c3nccn3C)nc3sc(-c4ccn(C(C)C)n4)c(C)c23)n1.Cl [Compound 65, hydrochloride salt] | KRas G12D mutant (Homo sapiens, UniProt P01116, G12D) | 26 to 50% |
| CO[C@H]1CC[C@@H](Nc2nc(-c3nccn3C)nc3sc(-c4cn(C)cn4)c(-c4ccccc4)c23)C1 (racemic) | KRas G12D mutant (Homo sapiens, UniProt P01116, G12D) | 76 to 100% |

Query: Endpoint output: inhibition at 20 µM of Oc1nc(-c2nccn2CCOCC(F)(F)F)nc2c(-c3ccccn3)csc12 . Value?
Response: 51 to 75%

Query: Endpoint output: inhibition at 20 µM of COc1cccn2c(-c3nc(O)c4scc(-c5ccccn5)c4n3)ncc12 . Value?
Response: 26 to 50%

Query: Endpoint output: inhibition at 20 µM of COCCNC(=O)c1nc(O)c2scc(-c3ccccn3)c2n1 . Value?
Response: 26 to 50%

Query: Endpoint output: inhibition at 20 µM of COCCn1cnc(-c2nc(O)c3scc(-c4ccccn4)c3n2)c1 . Value?
Response: 76 to 100%

Query: Endpoint output: inhibition at 20 µM of Cc1c(-c2ccn(C(C)C)n2)sc2nc(-c3nccn3C)nc(NC[C@@H]3CCC(=O)N3)c12 . Value?
Response: 26 to 50%

Query: Endpoint output: inhibition at 20 µM of Oc1nc(-c2cccnc2)nc2c(-c3ccccn3)csc12 . Value?
Response: 0%

###

Measured inhibition at 20 µM of individual entries
biological target: KRas Q61H mutant (Homo sapiens, UniProt P01116, Q61H); construct: made in house; assay: Ras GTP binding domain inhibition assay (labeled-GTP competition, cell-free); conditions: at 20 μM, without SOS; read-out: KRas Q61H mutant: % inh.

| compound | inhibition at 20 µM |
| --- | --- |
| COCCNc1nc(-c2nccn2C)nc2sc(-c3ccn(C(C)C)n3)c(C)c12 | 76 to 100% |
| Oc1nc(-c2ccccn2)nc2c(-c3ncccc3F)csc12 | 51 to 75% |

Query: Endpoint output: inhibition at 20 µM of CO[C@H]1CC[C@@H](Nc2nc(-c3ccccn3)nc3sc(-c4ccn(C(C)C)n4)c(C)c23)C1 (racemic) . Value?
Response: 76 to 100%

Query: Endpoint output: inhibition at 20 µM of COCC1CCN(c2nc(-c3nccn3C)nc3sc(-c4ccn(C(C)C)n4)c(C)c23)C1 (racemic) . Value?
Response: 76 to 100%
